Numbers sourced from a melting point compilation (Tetko et al.).

Lab note: cut-off is 200 °C. Strictly less in melting point is yes (1). Exactly 200 °C or more is no (0).

Quick check: melting point of `CC(=O)Oc1ccccc1C(=O)Oc1ccccc1` under 200 °C?
yes (1)

Is the reported melting point for CCC(C(=O)O)c1ccc(N2Cc3ccccc3C2=O)cc1 (configuration not stated) strictly below 200 °C?
yes (1)

API: query returns whether the compound falls strictly under 200 °C in melting point. Query: CC=C1CC(C)C(O)(CO)C(=O)OCC2=CCN3CCC(OC1=O)C23 (configuration not stated)
no (0)

Dear reviewer, please state whether `CC(C)(O)c1ccc(-c2ccccc2)cc1` has melting point strictly beneath 200 °C.
yes (1)

For `O=C(NCCNC(=O)c1ccccc1)c1ccccc1` , is the recorded melting point below the cut-off of 200 °C?
no (0)

Here's an entry: `COC(=O)CC(=O)OC(C)(C)C` . Is its melting point below 200 °C?
yes (1)

I'd appreciate it if you could check whether CC(NC(=O)c1ccccc1)C(=O)O (racemic) has melting point smaller than 200 °C.
yes (1)

Does this compound meet the criterion melting point < 200 °C? `Cc1cc(Cl)cc(Cl)c1CN`
yes (1)

I'd appreciate it if you could check whether `Brc1ccc(-c2cccnc2)nc1` has melting point smaller than 200 °C.
yes (1)

Lab note: melting point threshold 200 °C. Does this compound come in strictly under it? O=C1NC2=Cc3ccccc3C2(O)Cc2ccccc21 (configuration not stated)
no (0)

Answer whether the compound `COc1cc(F)c(C=O)cc1F` has melting point strictly less than 200 °C
yes (1)

Field: below-cutoff. Rule: recorded melting point strictly less than 200 °C. Subject: `O=C(O)CN(CC(=O)O)Cc1cc2c(c(O)c1O)C(=O)c1ccccc1C2=O`
yes (1)

Quick check: melting point of `Cc1ccc(C)c2c1C(=O)c1ccccc1C2=O` under 200 °C?
yes (1)

Is it true that melting point reported for `O=C(O)c1ccc(-c2ccc(O)cc2)cc1` is less than 200 °C?
no (0)

Regarding `CCCCCCCCCBr` , kindly confirm whether its melting point is beneath 200 °C.
yes (1)

State whether 200 °C exceeds melting point recorded for `N#CC(=Cc1cccs1)c1nc2ccccc2s1` .
yes (1)

====

assay_metric: melting point

melting point reading for CC(C)CC(O)C(=O)O (racemic) : 75 to 78 °C

Reported melting point of `COc1cc(C=C2C(=O)NC(=N)N2C)ccc1O` : 270 to 273 °C

Quick note, melting point for `CN1CCOc2cc(Br)cnc21` landed at 77 to 79 °C

Data point: `O=C(Cl)c1ccsc1` ; melting point = 50 to 54 °C

Value of melting point reported for the compound `COc1cc(C=Nn2c(C)cc(C)c(C#N)c2=O)ccc1O` is 259 to 260 °C

Given item `CSC(Cl)=NS(=O)(=O)c1ccc(C)cc1` , the value recorded as its melting point is 90 to 91 °C

Entry `CC(=O)c1ccc(O)c(O)c1` ; melting point = 117 to 119 °C

Note to self: melting point recorded for `CCOC(=O)Cc1cc(C(=NNc2ccccc2)C(=O)OCC)c([N+](=O)[O-])cc1[N+](=O)[O-]` was 154 to 155 °C

====

Can you tell me melting point for the items I'm about to list?
Please give a number only; it is taken to be in °C.

The compound `Cc1c(Cl)cccc1Cl` showed melting point equal to 25.8

# melting point (compound: CCC(C)Cl (stereo not given) ) is -140

// melting point lookup, compound = `CC(=O)c1ccc(Cl)c([N+](=O)[O-])c1` , result: 98

Just so you know, measured melting point for CC1C(=O)C23C4CC5C(C)(C)CCC(O)C56COC(CC1C2OC(C)(C)O4)C63 (stereo not given) came out at 204

Memo: `COc1cccc(C2C(C(=O)OC(C)C)=C(C)NC(C)=C2C(=O)OC(C)C)c1O` , reported melting point: 196

According to the records, this compound `O=C(O)COc1cccc(Cl)c1Cl` displays melting point of 174

// melting point lookup, compound = CC(NC(C)(C)C)C(=O)c1cccc(Cl)c1 (stereo not given) , result: 234

Measured melting point of CCCC(C)Cl (stereo not given) : -80

Lab note: Cc1c(C)c(C)c2c(c1C)CC2(C)O (stereo not given) gave melting point of 90

According to the records, this compound CCC(O)(CC)C1(C)CCC(C(=O)OC)C(C)(C)O1 (stereo not given) displays melting point of 162

====

What melting point was measured for each of the following?
Field format: number, assumed °C, no unit text.

Entry N#CC(O)C(Cl)(Cl)Cl (stereo not given) — recorded melting point = 61

Briefly, melting point measured for `CC1=C(C)S(=O)(=O)CCS1(=O)=O` : 168

Summary for this compound, `COC(=O)c1cnc(Br)s1` : melting point is 63

====

Please provide measured melting point for the entries that follow.

The recorded melting point for entry `CSc1nc(N)c(C(=O)c2ccc(Cl)cc2)s1` equals 148 to 150 °C

What the record says about `O=C(O)[C@H]1CCCCN1C(=O)OCC1c2ccccc2-c2ccccc21` : melting point is 149 to 153 °C

Item: OC1OC2COC(c3ccccc3)OC2C(O)C1O (configuration not stated) | melting point: 173 to 174 °C

// melting point lookup, molecule = `COc1ccc(N(C)C(=S)Cl)cc1` , result: 70 to 72 °C

The molecule identified as `c1csc(P(c2cccs2)c2cccs2)c1` registered its melting point at 29 to 30 °C

According to the records, this molecule `COc1cc(C)c(C=O)cc1C` displays melting point of 31 to 35 °C

melting point reading for `C=CCc1c(O)cccc1C=O` : 104 to 106 °C

Summary for this molecule, CC(=O)Oc1ccccc1C1NC(=O)NC(C)=C1C(=O)OCc1ccccc1 (configuration not stated) : melting point is 202 to 203 °C

melting point for `COc1ccc(C(=O)c2ccccc2F)cc1[N+](=O)[O-]` is 133 to 139 °C

// `COc1cc(C(C)=O)cc(OC)c1O` : melting point value = 123 to 128 °C

For this molecule ( CC(C)CCCC(C)C1CCC2C3CCC4CCCCC4(C)C3CCC12C (configuration not stated) ), measured melting point is 79 to 80 °C

# melting point (molecule: `CCOC(=O)c1c(NC(=O)Nc2cccc(Cl)c2)sc2c1CCCC2` ) is 164 to 165 °C

melting point reading for `COc1cc(C/C(=N\O)C(=O)O)ccc1O` : 139 °C

Sample C=C1C(=O)C23C4CC5C(C)(C)CCC(OC(C)=O)C5(C)C2C(OC(C)=O)CC1(O)C3OC(C)(C)O4 (configuration not stated) ; melting point observed: 246 °C

melting point for CC(=O)OC1CCC2(C)C(C1)CC1(OCCO1)C1C2CCC2(C)C1CCC21OCCO1 (configuration not stated) is 205 to 210 °C

Input `FC(F)(F)C(F)(F)N(C(F)(F)C(F)(F)F)C(F)(F)C(F)(F)F` . Output melting point: -110 °C

The molecule listed as CC(C)NCC1CCc2cc(CO)c([N+](=O)[O-])cc2N1 (configuration not stated) shows melting point equal to 148 °C

get_value(item= `COc1ccc(C#N)cc1[N+](=O)[O-]` , readout=melting point) returns 148 to 151 °C

The molecule `O=C(c1ccccc1)c1noc(-c2ccc([N+](=O)[O-])cc2)c1S(=O)(=O)c1ccccc1` showed melting point equal to 165 °C

The measured melting point associated with `CCc1ccc2cc(O)c(O)cc2c1` reads 149 °C

Input CC12CCC3C(CCC4CC5SC5CC43C)C1CCC2O (configuration not stated) . Output melting point: 127 °C

Entry under test: CCCCCCCCCCC(Br)C(=O)O (configuration not stated) . Its melting point was 32 °C

Summary for this molecule, `Cc1ccc(S(=O)(=O)Nc2ccccc2C)cc1` : melting point is 110 °C

The molecule listed as `CC(=O)N[C@H]1[C@H](OC(C)=O)O[C@H](COC(C)=O)[C@@H](OC(C)=O)[C@@H]1OC(C)=O` has a reported melting point of 186 to 189 °C

Quick note, melting point for `O=c1c(Cl)c(Cl)cnn1Cc1ccc(Cl)cc1` landed at 138 to 139 °C

The measured melting point associated with `C1CNCCNCCNCCN1` reads 108 to 113 °C

The reported value for CCOC(=O)C(/C=C1\C(=O)C2(C)CCC1C2(C)C)(/C=C1\C(=O)C2(C)CCC1C2(C)C)CC(C)C (configuration not stated) in terms of melting point is 156 °C

Recorded melting point (molecule `C=COC(=O)CC` ): -80 °C

Just so you know, measured melting point for `O=C(OCC(=O)N1CCCCCC1)c1ccccc1` came out at 108 °C

Recorded melting point (molecule `CS(=O)(=O)NC(=O)c1cc(Oc2ccc(C(F)(F)F)cc2Cl)ccc1[N+](=O)[O-]` ): 220 °C

// sample `CCCC(=O)Oc1c[nH]c2ccc(Br)c(Cl)c12` , its melting point was 91 to 93 °C

Given item `CC(C)CCOc1ccc(NC(=S)Nc2ccc(OCCC(C)C)cc2)cc1` , the value recorded as its melting point is 146 °C
